From: paper PMC9928118

# Test system: GST-tagged Cn
# Method Summary: PEPperPRINT peptide microarray binding assay with GST-tagged Cn
# Condition Set: GST-tagged Cn, max over the chip locations
Class definitions on Chip Fluorescence (max): LOW = under -0.3, MEDIUM = from -0.3 up to 0.1, HIGH = 0.1 and over

Previously resolved entries follow.
HVSSSPDIAITPTQHR [SeqRBMlowT_750]    MEDIUM
AHVSVPVIVVSPGETI [SeqRBM_3486]    HIGH
GQSISRNIRPNTFSPL [Seqshuffled_9432]    MEDIUM
TFHINPQLHLIVSDAD [SeqCAPN11_Daphnia_magna]    LOW
KSKLIPKLSIQSPVHH [SeqRBMlowT_830]    LOW
STSSLPTFSFSSPVPS [SeqRBMlowT_2358]    MEDIUM

Input: Into which bin does this sequence go? THTKISSFRGDAEPAP [Seqshuffled_9494]
Output: HIGH

Input: For the record RNPGSPVLELEGHSAS [SeqRBMlowT_6392] , report the class its Chip Fluorescence (max) corresponds to.
Output: MEDIUM

Input: In plain terms, what class is ADEANPQITITPAELP [SeqRBMlowT_1252] ?
Output: LOW

Input: Exercise: read the entry RNPGTPLLELKGHAAS [SeqRBMlowT_8729] and state which class it falls under.
Output: MEDIUM

Input: Class label required: VKLVIIQVRSASVDAN [SeqRBM_6437]
Output: LOW

Input: Sort into band: NFNPNPAVVLKIPQQR [SeqRBM_5953]
Output: LOW

Input: Classify this sequence: ADEAAPEIVVSKPEHN [SeqRBMlowT_7698]
Output: MEDIUM

Input: # classify by Chip Fluorescence (max) band: KSKLIPKLSFQSPVHH [SeqRBMlowT_3425]
Output: HIGH

---

Each record here notes measured Chip Fluorescence (max).
# Test system: GST-tagged Cn
# Method Summary: PEPperPRINT peptide microarray binding assay with GST-tagged Cn
# Condition Set: max over the spots listed under Location on chip
Number only, no unit.

ADEAIPKIVIHPPEEP [SeqRBMlowT_1972]    3.233

Next sequence, Chip Fluorescence (max) to be filled in.
Input: Supply Chip Fluorescence (max) value. Item: GYDIDPAISFDSDLML [Seqshuffled_9502]
Output: 3.174

---

# Tested on: GST-tagged Cn
# Method Summary: PEPperPRINT peptide microarray binding assay with GST-tagged Cn
# Condition Set: max over the chip locations listed for the peptide (two spots)
Measurement Type: Chip Fluorescence (max)
Simply state the number, no unit and no words.

FFHHGLSCCKARQAEY [Seqrandom_9955]    3.699
LCWFLDYRVVLPFFAY [Seqshuffled_7970]    4.66
RMMEPQNRGFKGCTES [Seqshuffled_509]    6.671
GAWGLNKSGLFLINEV [Seqshuffled_9399]    7.244
ESSTTPGVVVHICEDD [SeqRBM_7485]    8.839

Input: Output Chip Fluorescence (max) of ASEAAPTINIDFAPNP [SeqRBMlowT_1832]
Output: 4.3558

---

Catalogue of Chip Fluorescence (max) readings, one per entry.
# Test system: GST-tagged Cn
# Method Summary: PEPperPRINT peptide microarray binding assay with GST-tagged Cn
# Condition Set: max over the duplicate spots (Location on chip)
Answer with a number only.

Look over these answered cases.
GNDDCPEVVVHPPEED [SeqRBMlowT_7697]    2.095
PNKICGQRSFDGEHQN [Seqshuffled_9648]    2.3848
SDVAQQCLPSQHWSCW [Seqrandom_9997]    2.401
GFETTPSIVVHVCEED [SeqRBMlowT_1939]    2.448
KAYMNPFMQFIDGGRK [SeqRBMlowT_6686]    2.02

Input: Look up Chip Fluorescence (max) of GTDLRQQTAAQPNDGA [Seqshuffled_4362] and report it.
Output: 2.523

Input: Please report Chip Fluorescence (max) for the following sequence: NNLAINDVTAGDRGCY [SeqRBM_1373]
Output: 2.1787

Input: Report Chip Fluorescence (max) for TFWMNPQYRITLEEPD [SeqRBMlowT_2265]
Output: 2.207
